Listed here are compounds together with their documented IC50.
- Tested on: HUVEC
- test-protocol: Cell viability by MTT reduction assay, HUVEC
- Assay type: cell-based
- measurement-parameters: Homo sapiens, 24 hours incubation, mean ± SD, n = 3, read-out: IC50, cellular viability, HUVEC
- Description: HUVECs (C-015-10C, Cascade Biologics, Life Technologies, USA) are primary human umbilical vein endothelial cells that are pooled from multiple donors. […] The effect of the drug on all cells and parasite viability was evaluated through the tetrazolium salt (MTT, Sigma-Aldrich) reduction assay as described. […] The plates were incubated overnight with 10% SDS w/v in 0.01 M HCl at 37°C, and optical density (OD) was determined using a microplate reader (Labsystems Multiskan MS, Finland) at 570 nm. […]
value-kind: IC50 (µM)

- compound: "CCC(C)(C)C(=O)O[C@H]1C[C@@H](C)C=C2C=C[C@H](C)[C@H](CC[C@@H]3C[C@@H](O)CC(=O)O3)[C@H]21 [Simvastatin]"
  readout-qualifier: "="
  reading: 84.4
- compound: "O=C(Cn1ccnc1[N+](=O)[O-])NCc1ccccc1 [Benznidazole]"
  readout-qualifier: "<"
  reading: 100

====

- Tested on: Trypomastigotes Dm28c
- test-protocol: Parasite viability by MTT reduction assay, trypomastigotes
- Type: cell-based
- measurement-parameters: Trypanosoma cruzi, 24 h, read-out: IC50, cellular viability, Trypomastigotes Dm28c

- compound: "O=C(Cn1ccnc1[N+](=O)[O-])NCc1ccccc1 [Benznidazole]"
  IC50: "20.8 µM"

====

- Test system: HL-60 cells
- test-protocol: Cell viability by MTT reduction assay, HL-60 cells
- Type: cell-based
- measurement-parameters: Homo sapiens, 24 hours incubation, mean ± SD, n = 3, read-out: IC50, cellular viability, HL-60 cells
pIC50: −log10 of the molar value.
value-kind: pIC50

- sample-smiles: "CCC(C)(C)C(=O)O[C@H]1C[C@@H](C)C=C2C=C[C@H](C)[C@H](CC[C@@H]3C[C@@H](O)CC(=O)O3)[C@H]21"
  readout-qualifier: "="
  reading: 4.17
- sample-smiles: "O=C(Cn1ccnc1[N+](=O)[O-])NCc1ccccc1"
  readout-qualifier: ">"
  reading: 4.00

Cited source: paper PMC4433340
